# System: Pasteurella multocida
# assay: minimum inhibitory concentration (MIC)
# conditions: isolate (source animal id): 164
Exercise: state measured minimum inhibitory concentration for each of the compounds provided.

# example entries with known answers
[[record]]
compound = "CC[C@H]1OC(=O)C[C@@H](O)[C@H](C)[C@@H](O[C@@H]2O[C@H](C)[C@@H](O[C@H]3C[C@@](C)(O)[C@@H](O)[C@H](C)O3)[C@H](N(C)C)[C@H]2O)[C@@H](CC=O)C[C@@H](C)C(=O)/C=C/C(C)=C/[C@@H]1CO[C@@H]1O[C@H](C)[C@@H](O)[C@@H](OC)[C@H]1OC [Tylosin]"
assay_metric = "minimum inhibitory concentration"
recorded_value = "> 32 µg/mL"

[[record]]
compound = "CN[C@@H]1[C@H](O)[C@H](NC)[C@H]2O[C@@]3(O)C(=O)C[C@@H](C)O[C@H]3O[C@@H]2[C@H]1O [Spectinomycin]"
assay_metric = "minimum inhibitory concentration"
recorded_value = "> 64 µg/mL"


# context switch: different compound, same minimum inhibitory concentration
// query Supply minimum inhibitory concentration value. Item: CCCN1C[C@H](C)[C@@H](O)[C@](C)(O)[C@@H](CC)OC(=O)[C@H](C)[C@@H](O[C@H]2C[C@@](C)(OC)[C@@H](O)[C@H](C)O2)[C@H](C)[C@@H](O[C@@H]2O[C@H](C)C[C@H](N(C)C)[C@H]2O)[C@](C)(O)C[C@H]1C [Gamithromycin]
// result > 8 µg/mL

----------
Exercise: state measured minimum inhibitory concentration for each of the compounds provided.
# Test system: Pasteurella multocida
# assay: minimum inhibitory concentration (MIC)
# conditions: isolate (source animal id): 275

[[record]]
input_smiles = "CO/N=C(\\C(=O)N[C@@H]1C(=O)N2C(C(=O)O)=C(CSC(=O)c3ccco3)CS[C@H]12)c1csc(N)n1"
assay_metric = "minimum inhibitory concentration"
recorded_value = "≤ 0.25 µg/mL"


// for each compound in input: emit minimum inhibitory concentration
1. NC[C@@H]1O[C@H](O[C@H]2[C@@H](O)[C@H](O[C@@H]3[C@@H](O)[C@H](N)C[C@H](N)[C@H]3O[C@H]3O[C@H](CN)[C@@H](O)[C@H](O)[C@H]3N)O[C@@H]2CO)[C@H](N)[C@@H](O)[C@@H]1O
2. COc1cc(NS(=O)(=O)c2ccc(N)cc2)nc(OC)n1

// result
["> 32 µg/mL", "> 256 µg/mL"]

----------
# Tested on: Escherichia coli
# assay: minimum inhibitory concentration (MIC)
# conditions: isolate (source animal id): 164
assay metric: minimum inhibitory concentration

# example entries with known answers
[[record]]
input_smiles = "COc1cc(Cc2cnc(N)nc2N)cc(OC)c1OC.Cc1cc(NS(=O)(=O)c2ccc(N)cc2)no1"
assay_metric = "minimum inhibitory concentration"
recorded_value = "≤ 2 µg/mL"

[[record]]
input_smiles = "CO/N=C(\\C(=O)N[C@@H]1C(=O)N2C(C(=O)O)=C(CSC(=O)c3ccco3)CS[C@H]12)c1csc(N)n1"
assay_metric = "minimum inhibitory concentration"
recorded_value = "≤ 0.25 µg/mL"


// query Supply minimum inhibitory concentration value. Item: CN(C)[C@@H]1C(O)=C(C(N)=O)C(=O)[C@@]2(O)C(O)=C3C(=O)c4c(O)cccc4[C@@](C)(O)[C@H]3C[C@@H]12
// result > 8 µg/mL

----------
Exercise: state measured minimum inhibitory concentration for each of the compounds provided.
# System: Escherichia coli
# assay: minimum inhibitory concentration (MIC)
# conditions: isolate (source animal id): 138

[[record]]
compound = "CN[C@@H]1[C@H](O)[C@H](NC)[C@H]2O[C@@]3(O)C(=O)C[C@@H](C)O[C@H]3O[C@@H]2[C@H]1O [Spectinomycin]"
target_desc = "Escherichia coli"
recorded_value = "> 64 µg/mL"

[[record]]
compound = "CNC(C)C1CCC(N)C(OC2C(N)CC(N)C(OC3OCC(C)(O)C(NC)C3O)C2O)O1 (stereo not drawn) [Gentamicin]"
target_desc = "Escherichia coli"
recorded_value = "≤ 1 µg/mL"


# context switch: different compound, same minimum inhibitory concentration
// query Supply minimum inhibitory concentration value. Item: CN(C)[C@@H]1C(O)=C(C(N)=O)C(=O)[C@@]2(O)C(O)=C3C(=O)c4c(O)cccc4[C@@](C)(O)[C@H]3C[C@@H]12 [Tetracycline]
// result > 8 µg/mL

----------
# Test system: Mannheimia haemolytica
# assay: minimum inhibitory concentration (MIC)
# conditions: isolate (source animal id): 201
assay metric: minimum inhibitory concentration

# example entries with known answers
[[record]]
input_smiles = "COc1cc(Cc2cnc(N)nc2N)cc(OC)c1OC.Cc1cc(NS(=O)(=O)c2ccc(N)cc2)no1"
assay_metric = "minimum inhibitory concentration"
recorded_value = "≤ 2 µg/mL"

[[record]]
input_smiles = "COc1cc(NS(=O)(=O)c2ccc(N)cc2)nc(OC)n1"
assay_metric = "minimum inhibitory concentration"
recorded_value = "> 256 µg/mL"


// query Supply minimum inhibitory concentration value. Item: CCCNC[C@]1(O)[C@H](C)O[C@@H](O[C@H]2[C@H](C)[C@@H](O[C@@H]3O[C@H](C)C[C@H](N(C)C)[C@H]3O)[C@](C)(O)C[C@@H](C)CN[C@H](C)[C@@H](O)[C@](C)(O)[C@@H](CC)OC(=O)[C@@H]2C)C[C@@]1(C)OC
// result ≤ 8 µg/mL

----------
Exercise: state measured minimum inhibitory concentration for each of the molecules provided.
# System: Pasteurella multocida
# assay: minimum inhibitory concentration (MIC)
# conditions: isolate (source animal id): 206

# example entries with known answers
[[record]]
input_smiles = "CN1C[C@@H]2C[C@H]1CN2c1cc2c(cc1F)c(=O)c(C(=O)O)cn2C1CC1"
recorded_value = "≤ 0.12 µg/mL"

[[record]]
input_smiles = "NC[C@@H]1O[C@H](O[C@H]2[C@@H](O)[C@H](O[C@@H]3[C@@H](O)[C@H](N)C[C@H](N)[C@H]3O[C@H]3O[C@H](CN)[C@@H](O)[C@H](O)[C@H]3N)O[C@@H]2CO)[C@H](N)[C@@H](O)[C@@H]1O"
recorded_value = "> 32 µg/mL"


# context switch: different molecule, same minimum inhibitory concentration
// query Supply minimum inhibitory concentration value. Item: CC1(C)S[C@@H]2[C@H](NC(=O)[C@H](N)c3ccccc3)C(=O)N2[C@H]1C(=O)O
// result ≤ 0.25 µg/mL

----------
# System: Histophilus somni
# assay: minimum inhibitory concentration (MIC)
# conditions: isolate (source animal id): 198
assay metric: minimum inhibitory concentration

[[record]]
input_smiles = "CN1C[C@@H]2C[C@H]1CN2c1cc2c(cc1F)c(=O)c(C(=O)O)cn2C1CC1"
assay_metric = "minimum inhibitory concentration"
recorded_value = "≤ 0.12 mg/L"

[[record]]
input_smiles = "CC1(C)S[C@@H]2[C@H](NC(=O)[C@H](N)c3ccccc3)C(=O)N2[C@H]1C(=O)O"
assay_metric = "minimum inhibitory concentration"
recorded_value = "≤ 0.25 mg/L"

[[record]]
input_smiles = "CCCN1C[C@H](C)[C@@H](O)[C@](C)(O)[C@@H](CC)OC(=O)[C@H](C)[C@@H](O[C@H]2C[C@@](C)(OC)[C@@H](O)[C@H](C)O2)[C@H](C)[C@@H](O[C@@H]2O[C@H](C)C[C@H](N(C)C)[C@H]2O)[C@](C)(O)C[C@H]1C"
assay_metric = "minimum inhibitory concentration"
recorded_value = "≤ 1 mg/L"


# context switch: different compound, same minimum inhibitory concentration
// query Supply minimum inhibitory concentration value. Item: CO/N=C(\C(=O)N[C@@H]1C(=O)N2C(C(=O)O)=C(CSC(=O)c3ccco3)CS[C@H]12)c1csc(N)n1
// result ≤ 0.25 mg/L

----------
Exercise: state measured minimum inhibitory concentration for each of the compounds provided.
# Tested on: Escherichia coli
# assay: minimum inhibitory concentration (MIC)
# conditions: isolate (source animal id): 142

# example entries with known answers
[[record]]
input_smiles = "CC1(C)S[C@@H]2[C@H](NC(=O)Cc3ccccc3)C(=O)N2[C@H]1C(=O)O"
assay_metric = "minimum inhibitory concentration"
recorded_value = "> 8 µg/mL"

[[record]]
input_smiles = "COc1cc(NS(=O)(=O)c2ccc(N)cc2)nc(OC)n1"
assay_metric = "minimum inhibitory concentration"
recorded_value = "> 256 µg/mL"


# context switch: different compound, same minimum inhibitory concentration
// query Supply minimum inhibitory concentration value. Item: COc1cc(Cc2cnc(N)nc2N)cc(OC)c1OC.Cc1cc(NS(=O)(=O)c2ccc(N)cc2)no1
// result ≤ 2 µg/mL

----------
Exercise: state measured minimum inhibitory concentration for each of the molecules provided.
# Tested on: Histophilus somni
# assay: minimum inhibitory concentration (MIC)
# conditions: isolate (source animal id): 121

# example entries with known answers
[[record]]
input_smiles = "CC[C@H]1OC(=O)C[C@@H](O)[C@H](C)[C@@H](O[C@@H]2O[C@H](C)[C@@H](O)[C@H](N(C)C)[C@H]2O)[C@@H](CCN2CCCCC2)C[C@@H](C)C(=O)/C=C/C(C)=C/[C@@H]1CN1CCCCC1"
recorded_value = "≤ 1 µg/mL"

[[record]]
input_smiles = "CCN1CCN(c2cc3c(cc2F)c(=O)c(C(=O)O)cn3C2CC2)CC1"
recorded_value = "≤ 0.12 µg/mL"

[[record]]
input_smiles = "C=C[C@]1(C)C[C@@H](OC(=O)CSCCN(CC)CC)[C@]2(C)[C@H](C)CC[C@]3(CCC(=O)[C@H]32)[C@@H](C)[C@@H]1O"
recorded_value = "1 µg/mL"

[[record]]
input_smiles = "CCCNC[C@]1(O)[C@H](C)O[C@@H](O[C@H]2[C@H](C)[C@@H](O[C@@H]3O[C@H](C)C[C@H](N(C)C)[C@H]3O)[C@](C)(O)C[C@@H](C)CN[C@H](C)[C@@H](O)[C@](C)(O)[C@@H](CC)OC(=O)[C@@H]2C)C[C@@]1(C)OC"
recorded_value = "≤ 8 µg/mL"

[[record]]
input_smiles = "CCCN1C[C@H](C)[C@@H](O)[C@](C)(O)[C@@H](CC)OC(=O)[C@H](C)[C@@H](O[C@H]2C[C@@](C)(OC)[C@@H](O)[C@H](C)O2)[C@H](C)[C@@H](O[C@@H]2O[C@H](C)C[C@H](N(C)C)[C@H]2O)[C@](C)(O)C[C@H]1C"
recorded_value = "≤ 1 µg/mL"


# context switch: different molecule, same minimum inhibitory concentration
// query Supply minimum inhibitory concentration value. Item: CC1(C)S[C@@H]2[C@H](NC(=O)Cc3ccccc3)C(=O)N2[C@H]1C(=O)O
// result ≤ 0.12 µg/mL
